Known koff of a selection of binders
Target: T1, recombinant human IL-6 (human, UniProt P05231 30-212)
T1 construct: Bought protein
T1 sequence (P05231 30-212 limits assumed): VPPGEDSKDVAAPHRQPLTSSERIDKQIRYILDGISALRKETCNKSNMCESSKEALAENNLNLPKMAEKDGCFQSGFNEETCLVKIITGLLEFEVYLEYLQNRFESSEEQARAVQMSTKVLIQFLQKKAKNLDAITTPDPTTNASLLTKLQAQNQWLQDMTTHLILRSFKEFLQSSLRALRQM
Test: SPR Biacore, purified Ab on Protein A chip, IL-6 analyte, 37 C
Give just the numeric value; s⁻¹ need not be written.

>>> measured_number("anti-IL-6 antibody, light chain M32L (heavy chain WT) (antibody, V domains shown, See note of m2; also called WT / M32L) VH: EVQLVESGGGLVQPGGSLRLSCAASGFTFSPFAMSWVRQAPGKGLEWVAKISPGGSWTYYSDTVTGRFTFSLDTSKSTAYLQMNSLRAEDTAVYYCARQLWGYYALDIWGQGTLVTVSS VL: DIQLTQSPSSLSASVGDRVTITCSASISVSYLYWYQQKPGKAPKLLIYDMSNLASGVPSRFSGSGSGTDFTLTISSLQPEDFATYYCMQWSGYPYTFGQGTKVEIK")
0.00035
>>> measured_number("anti-IL-6 antibody, heavy chain variant II (M34W, G66D, I108V) / light chain variant V (M32L, M50D, M88Q) (antibody, V domains shown, See note of m39; also called M34W, G66D, I108V/ M32L, M50D, M88Q; II/V) VH: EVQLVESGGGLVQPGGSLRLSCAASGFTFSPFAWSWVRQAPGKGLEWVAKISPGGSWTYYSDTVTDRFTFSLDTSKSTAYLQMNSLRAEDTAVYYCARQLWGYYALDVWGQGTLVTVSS VL: DIQLTQSPSSLSASVGDRVTITCSASISVSYLYWYQQKPGKAPKLLIYDDSNLASGVPSRFSGSGSGTDFTLTISSLQPEDFATYYCQQWSGYPYTFGQGTKVEIK")
0.000627

Prompt: Suppose we examine the binder anti-IL-6 antibody, heavy chain variant I (M34I, G66D, I108V) / light chain variant IV (M32L, M50A, N52S, M88Q) (antibody, V domains shown, See note of m39; also called M34I, G66D, I108V/ M32L, M50A, N52S, M88Q; I/IV) VH: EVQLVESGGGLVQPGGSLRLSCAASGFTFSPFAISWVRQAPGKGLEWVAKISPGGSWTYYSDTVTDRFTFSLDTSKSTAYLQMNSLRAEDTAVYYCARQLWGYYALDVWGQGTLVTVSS VL: DIQLTQSPSSLSASVGDRVTITCSASISVSYLYWYQQKPGKAPKLLIYDASSLASGVPSRFSGSGSGTDFTLTISSLQPEDFATYYCQQWSGYPYTFGQGTKVEIK ; what koff value has been reported?
Response: 0.000757

Cited source: patent US20240209076A1
